biological target: cynomolgus monkey CD3 E&D complex protein (Sino Biological Inc., CT032-00323H) (cynomolgus monkey) (UniProt Q95LI5); assay: SPR, antigen on chip
Sequence (Q95LI5 22-117, chain 1 of 2): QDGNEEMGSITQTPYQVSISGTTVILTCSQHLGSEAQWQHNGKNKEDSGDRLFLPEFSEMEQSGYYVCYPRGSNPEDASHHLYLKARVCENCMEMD
Sequence (Q95LI8 22-105, chain 2 of 2, further chain): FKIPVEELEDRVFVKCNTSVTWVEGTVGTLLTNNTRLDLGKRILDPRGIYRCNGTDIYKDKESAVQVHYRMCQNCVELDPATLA
# Kd per entry
Express it in nM; write the number only.

- SGN70-sp34.101HL (bispecific antibody, part only; not given: anti-CD70 Fab arm and Fc, not shown: another chain or arm of the molecule; a dimerising Fc or GST; large carriers) scFv: EVQLVESGGGLVQPGGSLKLSCAASGFTFNTYAMNWVRQASGKGLEWVGRIRSKYNNYATYYADSVKDRFTISRDDSKSTLYLQMNSLKTEDTAVYYCARHGNFGQSAASWFAYWGQGTTVTVSSGGGGSGGGGSGGGGSGGGGSQAVVTQEPSLTVSPGGTVTLTCRSSTGAVTTSNYANWVQQKPGQAPRGLIGGTNKRAPGVPARFSGSLLGDKAALTLLGAQPEDEAEYYCALWYSNLWVFGQGTKLTVL: 658
- SGN70-sp34.101LH (bispecific antibody, part only; not given: anti-CD70 Fab arm and Fc, not shown: another chain or arm of the molecule; a dimerising Fc or GST; large carriers) scFv: QAVVTQEPSLTVSPGGTVTLTCRSSTGAVTTSNYANWVQQKPGQAPRGLIGGTNKRAPGVPARFSGSLLGDKAALTLLGAQPEDEAEYYCALWYSNLWVFGQGTKLTVLGGGGSGGGGSGGGGSGGGGSEVQLVESGGGLVQPGGSLKLSCAASGFTFNTYAMNWVRQASGKGLEWVGRIRSKYNNYATYYADSVKDRFTISRDDSKSTLYLQMNSLKTEDTAVYYCARHGNFGQSAASWFAYWGQGTTVTVSS: 614

Next, consider the following binder.
Please report the recorded Kd for SGN70-sp34.97HL (bispecific antibody, part only; not given: anti-CD70 Fab arm and Fc, not shown: another chain or arm of the molecule; a dimerising Fc or GST) scFv: EVQLVESGGGLVQPGGSLKLSCAASGFTFNTYAMNWVRQASGKGLEWVGRIRSKAGGYATYYADSVKDRFTISRDDSKSTLYLQMNSLKTEDTAVYYCARHGNFGQSYVSWFAYWGQGTTVTVSSGGGGSGGGGSGGGGSGGGGSQAVVTQEPSLTVSPGGTVTLTCRSSTGAVTTSNYANWVQQKPGQAPRGLIGGTNKRAPGVPARFSGSLLGDKAALTLLGAQPEDEAEYYCALWYSNLWVFGQGTKLTVL .
5500

Reference source: patent US20230374132A1
